- Tested on: HT29 colon
- assay_protocol: NCI-60 one-dose screen, 48 h
- details: 10 µM
This is part of a sample that, as a whole, favours compounds with a hit. Of some 83,000 tested, about 20% had one in any assay. Activity calls are given as the source filed them. Rule for the calls: active = growth percent below 10; inactive = the rest.
Labels: TRUE for active, FALSE for inactive

compound_structure | assigned_label
Cc1cc(CCNC=O)c(C)c2c1sc1ccccc12 | FALSE
CS(=O)(=O)c1nccc(-c2c(-c3cccc(OCc4ccccc4)c3)nc3sccn23)n1 | FALSE
COc1cc(-c2ccc(N=Nc3ccc4c(S(=O)(=O)O)ccc(N)c4c3O)c(OC)c2)ccc1N=Nc1ccc2c(S(=O)(=O)O)ccc(N)c2c1O | FALSE
Cc1ccc(-c2c3c(N)nc(-c4cccnc4)nc3nc3c2c(C)nn3-c2ccccc2)cc1 | FALSE
O=C(CI)OCC(COC(=O)CI)OC(=O)CI | FALSE
Cc1ccc(/C=C2/C(=O)N(C)c3ccc(S(=O)(=O)Nc4ccc(C(C)(C)C)cc4)cc32)s1 | FALSE
CCCCC1(O)CCCCC1 | FALSE
Nc1ncc(-c2cnn(C3CCNCC3)c2)cc1-c1nc2ccccc2o1 | TRUE
CC(C)(C)c1ccc(S(=O)(=O)N[C@H]2CC[C@H]3[C@@H]4CCc5cc(O)c([N+](=O)[O-])cc5[C@H]4CC[C@]23C)cc1 | FALSE
c1cncc(-c2csc(-c3c[nH]c4ccccc34)n2)c1 | FALSE

====

Recorded growth values for a group of compounds are listed next.
- Test system: SW-620 colon
- assay_protocol: NCI-60 one-dose screen, 48 h (100 = growth as untreated, 0 = no growth, -100 = all killed)
- details: 10 µM
The panel holds about 83,000 compounds, 20% with a hit somewhere; the sample as a whole holds those more often.

compound | growth, %
CCOC(=O)c1cc(C(=O)c2cc(OC)c(OC)c(OC)c2)n2ccc(-c3cc[n+](CC(=O)c4cc(OC)c(OC)c(OC)c4)cc3)cc12 | -64.8
Cc1cc(C)nc(NS(=O)(=O)c2ccc(Nc3nc4nc(NCc5ccccc5)nc(-c5ccc(O)cc5)c4c(=O)[nH]3)cc2)n1 | 11.2
CN(C)CCCOc1ccccc1NC1=C(Cl)C(=O)C(Nc2ccccc2OCCCN(C)C)=C(Cl)C1=O | -46.8
COc1ccc(/C=C2\CCCC3=C2NC(N)=NC3c2ccc(OC)cc2)cc1 (stereo not drawn) | 95.8
CCN(CC)CCCC(C)N=C(C1=C(C(=NC(C)CCCN(CC)CC)c2cccc(OC)c2)C(=O)NC1=O)c1cccc(OC)c1 (stereo not drawn) | -9.07
Oc1ccc(-c2[nH]c3ccccc3c2-c2nc3ccccc3o2)cc1 | 40.9
NC1=NC(c2ccccc2)C2=C(N1)/C(=C/c1ccccc1)CCC2 (stereo not drawn) | 72.8
CC(C)N(CCOc1ccc(-c2nc3sccn3c2-c2ccnc(S(C)(=O)=O)n2)cc1)C(C)C | 78.2

====

Entries annotated with measured growth
- Test system: CCRF-CEM leukemia
- assay_protocol: NCI-60 one-dose screen, 48 h (100 = growth as untreated, 0 = no growth, -100 = all killed)
- details: 10 µM
About 83,000 compounds went through this panel and 20% of them were active in at least one assay; those are over-represented in the sample as a whole.

compound | growth (%)
C/C(=N\O)c1ccc(NC(=O)CSc2nnc(-c3ccccc3)n2-c2ccccc2)cc1 | 92
S=C1N(c2ccccc2)CN(C2CCCCC2)CN1c1ccccc1 | 80.6
CCOC(=O)c1cc(C(=O)c2cc(OC)c(OC)c(OC)c2)n2ncc3ccccc3c12 | 70.1
CC(C)=CCC/C(C)=C/CC/C(C)=C/CC/C=C(\C)CC/C=C(\C)CCC(=O)Nc1ccn(C2OC(CO)C(O)C2(F)F)c(=O)n1 (stereo not given) | -6.58
O=S(=O)(Oc1ccc(-c2ccc3sccc3c2)cc1)c1ccc(F)cc1 | 86.1

The values you see were collected from PubChem BioAssay (NCI).
